# MEASURED_TARGET: RAC-alpha serine/threonine-protein kinase (Homo sapiens, UniProt P31749)
# Sequence (P31749 whole entry): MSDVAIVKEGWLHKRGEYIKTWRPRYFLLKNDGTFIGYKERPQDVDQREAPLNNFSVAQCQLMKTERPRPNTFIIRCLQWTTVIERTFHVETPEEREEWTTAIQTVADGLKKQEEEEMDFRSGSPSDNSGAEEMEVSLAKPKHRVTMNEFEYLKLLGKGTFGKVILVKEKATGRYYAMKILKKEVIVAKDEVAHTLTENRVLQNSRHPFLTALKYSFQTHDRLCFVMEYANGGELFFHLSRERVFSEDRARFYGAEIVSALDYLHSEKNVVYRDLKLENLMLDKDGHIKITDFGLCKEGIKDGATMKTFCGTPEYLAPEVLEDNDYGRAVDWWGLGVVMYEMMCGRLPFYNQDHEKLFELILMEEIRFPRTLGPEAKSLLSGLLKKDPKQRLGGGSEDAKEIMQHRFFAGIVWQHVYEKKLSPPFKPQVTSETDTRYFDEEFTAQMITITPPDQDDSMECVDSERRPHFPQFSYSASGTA
# RUN_DESCRIPTION: Inhibition of Akt phosphorylation in PC3 cells
# Format: cell-based, PC-3
pIC50: −log10 of the molar value.
ENDPOINT: pIC50

I: C/C(=C1/C(=O)Nc2ccc(NC(N)=O)cc21)c1ccc[nH]1
II: O=C1Nc2ccccc2/C1=C/c1ccc[nH]1
Please choose the item with the lower pIC50 value from this pair: I and II Your choice should be expressed through its label.
II
(II: 4.49, I: 7.00)

----------
# RUN_DESCRIPTION: Inhibition of PKA
# Set-up: species or system Homo sapiens
ENDPOINT: IC50 (nM)
Give the number; nM is assumed, so skip it.

May I ask what IC50 has been recorded for C/C(=C1/C(=O)Nc2ccc(NC(N)=O)cc21)c1ccc[nH]1 ?
1600
